Test system: A-427
Assay: relative viability (nuclei count vs DMSO), 5 days (fraction); higher = more cells survive
Conditions: first compound 500 µM
relative viability reference
Number only, no unit.

Compound	relative viability
O=C(O)CCCCC(CCSCc1ccccc1)SCc1ccccc1 (stereo not given) [CPI-613] + CS(=O)(=O)CCNCc1ccc(-c2ccc3ncnc(Nc4ccc(OCc5cccc(F)c5)c(Cl)c4)c3c2)o1 [Lapatinib] (partner 2 µM)	0.948
O=C(O)CCCCC(CCSCc1ccccc1)SCc1ccccc1 (stereo not given) [CPI-613] + CS(=O)(=O)N1CCN(Cc2cc3nc(-c4cccc5[nH]ncc45)nc(N4CCOCC4)c3s2)CC1 [Pictilisib] (partner 1 µM)	0.737
O=C(O)CCCCC(CCSCc1ccccc1)SCc1ccccc1 (stereo not given) [CPI-613] + Nc1ncn([C@H]2C[C@H](O)[C@@H](CO)O2)c(=O)n1 [Decitabine] (partner 2 µM)	0.435

Notebook: O=C(O)CCCCC(CCSCc1ccccc1)SCc1ccccc1 (stereo not given) [CPI-613] + NC(=O)Nc1cc(-c2cccc(F)c2)sc1C(=O)N[C@H]1CCCNC1 [AZD7762] (partner 0.2 µM) , relative viability read as 0.173

Form field relative viability, entry O=C(O)CCCCC(CCSCc1ccccc1)SCc1ccccc1 (stereo not given) [CPI-613] + Cc1cc(Nc2cc(N3CCN(C)CC3)nc(Sc3ccc(NC(=O)C4CC4)cc3)n2)n[nH]1 [Tozasertib] (partner 0.1 µM) : 0.0991

###

System: NCI-H661
Test: relative viability (nuclei count vs DMSO), 5 days (fraction); higher = more cells survive
Conditions: first compound 0.08 µM
Readout type: relative viability

Compound	relative viability
O=c1[nH]c2ccccc2n1C1CCN(CCCC(c2ccc(F)cc2)c2ccc(F)cc2)CC1 [Pimozide] + CC(=O)Nc1cccc(-n2c(=O)n(C3CC3)c(=O)c3c(Nc4ccc(I)cc4F)n(C)c(=O)c(C)c32)c1 [Trametinib] (partner 0.02 µM)	0.598

The compound Cc1cnc(-c2cnc(NCCNc3ccc(C#N)cn3)nc2-c2ccc(Cl)cc2Cl)[nH]1 + Cc1nc(NC(=O)N2CCC[C@H]2C(N)=O)sc1-c1ccnc(C(C)(C)C(F)(F)F)c1 [Alpelisib] (partner 2 µM) , when measured on NCI-H661, yielded relative viability of 0.419

Summary: O=c1[nH]c2ccccc2n1C1CCN(CCCC(c2ccc(F)cc2)c2ccc(F)cc2)CC1 [Pimozide] + Nc1ncn([C@H]2C[C@H](O)[C@@H](CO)O2)c(=O)n1 [Decitabine] (partner 2 µM) , NCI-H661, relative viability = 0.564

Recorded relative viability for O=c1[nH]c2ccccc2n1C1CCN(CCCC(c2ccc(F)cc2)c2ccc(F)cc2)CC1 [Pimozide] + O=C(c1cc(Cc2n[nH]c(=O)c3ccccc23)ccc1F)N1CCN(C(=O)C2CC2)CC1 [Olaparib] (partner 8 µM) on NCI-H661 was 0.735

###

System: HCC-78
Experiment: relative viability (nuclei count vs DMSO), 5 days (fraction); higher = more cells survive
Conditions: first compound 0.08 µM
// relative viability lookup, one value per entry
Form: value (number only, do not type unit).

Example cases with answers are listed next.
Compound	Target	relative viability
O=c1[nH]c2ccccc2n1C1CCN(CCCC(c2ccc(F)cc2)c2ccc(F)cc2)CC1 [Pimozide] + CC1(C)CCC(c2ccc(Cl)cc2)=C(CN2CCN(c3ccc(C(=O)NS(=O)(=O)c4ccc(N[C@H](CCN5CCOCC5)CSc5ccccc5)c(S(=O)(=O)C(F)(F)F)c4)cc3)CC2)C1 [Navitoclax] (partner 0.5 µM)	HCC-78	0.764
Cc1cnc(-c2cnc(NCCNc3ccc(C#N)cn3)nc2-c2ccc(Cl)cc2Cl)[nH]1 + CC(=O)c1c(C)c2cnc(Nc3ccc(N4CCNCC4)cn3)nc2n(C2CCCC2)c1=O [Palbociclib] (partner 0.5 µM)	HCC-78	0.463
Cc1cnc(-c2cnc(NCCNc3ccc(C#N)cn3)nc2-c2ccc(Cl)cc2Cl)[nH]1 + Nc1ncn([C@H]2C[C@H](O)[C@@H](CO)O2)c(=O)n1 [Decitabine] (partner 2 µM)	HCC-78	0.692

Below: the item to evaluate.
Case O=c1[nH]c2ccccc2n1C1CCN(CCCC(c2ccc(F)cc2)c2ccc(F)cc2)CC1 [Pimozide] + COc1cccc2cc(-c3nc([C@H]4CC[C@H](C(=O)O)CC4)n4ncnc(N)c34)[nH]c12 [OSI-027] (partner 0.5 µM) , HCC-78, relative viability recorded as 0.439

###

Test system: NCI-H650
Test: relative viability (nuclei count vs DMSO), 5 days (fraction); higher = more cells survive
Conditions: first compound 0.05 µM
Readout type: relative viability
Reply briefly: the number, and no unit.

These recorded examples may help you get a feel for the data.
Molecule	Meas value
COc1cc2nccc(Oc3ccc(NC(=O)Nc4cc(C)on4)c(Cl)c3)c2cc1OC [Tivozanib] + Cc1cc(Nc2cc(N3CCN(C)CC3)nc(Sc3ccc(NC(=O)C4CC4)cc3)n2)n[nH]1 [Tozasertib] (partner 0.1 µM)	0.743
Nc1ccn([C@@H]2O[C@H](CO)[C@@H](O)[C@@H]2O)c(=O)n1 [Cytarabine] + N=C(N)NC(=N)NCCc1ccccc1 [Phenformin] (partner 250 µM)	0.185
Nc1ccn([C@@H]2O[C@H](CO)[C@@H](O)[C@@H]2O)c(=O)n1 [Cytarabine] + O=C(c1cc(Cc2n[nH]c(=O)c3ccccc23)ccc1F)N1CCN(C(=O)C2CC2)CC1 [Olaparib] (partner 8 µM)	0.169
COc1cc2nccc(Oc3ccc(NC(=O)Nc4cc(C)on4)c(Cl)c3)c2cc1OC [Tivozanib] + COc1cc2c(Oc3ccc(NC(=O)C4(C(=O)Nc5ccc(F)cc5)CC4)cc3F)ccnc2cc1OCCCN1CCOCC1 [Foretinib] (partner 0.25 µM)	0.994
COc1cc2nccc(Oc3ccc(NC(=O)Nc4cc(C)on4)c(Cl)c3)c2cc1OC [Tivozanib] + CS(=O)(=O)CCNCc1ccc(-c2ccc3ncnc(Nc4ccc(OCc5cccc(F)c5)c(Cl)c4)c3c2)o1 [Lapatinib] (partner 2 µM)	0.844

Looking up COc1cc2nccc(Oc3ccc(NC(=O)Nc4cc(C)on4)c(Cl)c3)c2cc1OC [Tivozanib] + C[C@]1(O)C[C@@H](c2nc(-c3ccc4ccc(-c5ccccc5)nc4c3)c3c(N)nccn32)C1 [Linsitinib] (partner 1 µM) , I see its relative viability listed as 0.859

The reported relative viability of the molecule Nc1ccn([C@@H]2O[C@H](CO)[C@@H](O)[C@@H]2O)c(=O)n1 [Cytarabine] + C[C@]1(O)C[C@@H](c2nc(-c3ccc4ccc(-c5ccccc5)nc4c3)c3c(N)nccn32)C1 [Linsitinib] (partner 1 µM) was 0.379

Field relative viability (entry COc1cc2nccc(Oc3ccc(NC(=O)Nc4cc(C)on4)c(Cl)c3)c2cc1OC [Tivozanib] + O=C(c1cc(Cc2n[nH]c(=O)c3ccccc23)ccc1F)N1CCN(C(=O)C2CC2)CC1 [Olaparib] (partner 8 µM) ) reads 0.42

The molecule Nc1ccn([C@@H]2O[C@H](CO)[C@@H](O)[C@@H]2O)c(=O)n1 [Cytarabine] + CC(=O)Nc1cccc(-n2c(=O)n(C3CC3)c(=O)c3c(Nc4ccc(I)cc4F)n(C)c(=O)c(C)c32)c1 [Trametinib] (partner 0.02 µM) showed relative viability equal to 0.47

###

System: NCI-H1993
Assay: relative viability (nuclei count vs DMSO), 5 days (fraction); higher = more cells survive
Settings: first compound 2.53 µM
relative viability strictly less than 0.8 = condition met. Otherwise condition not met.

Molecule	Label class
O=c1[nH]c2ccccc2n1C1CCN(CCCC(c2ccc(F)cc2)c2ccc(F)cc2)CC1 [Pimozide] + N=C(N)NC(=N)NCCc1ccccc1 [Phenformin] (partner 250 µM)	condition met
O=c1[nH]c2ccccc2n1C1CCN(CCCC(c2ccc(F)cc2)c2ccc(F)cc2)CC1 [Pimozide] + O=C(CCCCCCC(=O)Nc1ccccc1)NO [Vorinostat] (partner 1 µM)	condition not met
Cc1cnc(-c2cnc(NCCNc3ccc(C#N)cn3)nc2-c2ccc(Cl)cc2Cl)[nH]1 + Cc1nc(Nc2ncc(C(=O)Nc3c(C)cccc3Cl)s2)cc(N2CCN(CCO)CC2)n1 [Dasatinib] (partner 0.075 µM)	condition not met

Let's switch to this molecule now.
Lab note: confirm whether the reported relative viability for this molecule is below 0.8, equality not counting. molecule: O=c1[nH]c2ccccc2n1C1CCN(CCCC(c2ccc(F)cc2)c2ccc(F)cc2)CC1 [Pimozide] + C[C@]1(O)C[C@@H](c2nc(-c3ccc4ccc(-c5ccccc5)nc4c3)c3c(N)nccn32)C1 [Linsitinib] (partner 1 µM)
condition met

###

Tested on: ChaGo-K-1
Assay: relative viability (nuclei count vs DMSO), 5 days (fraction); higher = more cells survive
Conditions: first compound 0.02 µM
The label is true for relative viability below 0.2 and false for relative viability equal to or exceeding 0.2.

Here are 3 molecules together with their reported answers.
Molecule	Label class
CC(=O)O[C@@]12CO[C@@H]1C[C@H](O)[C@@]1(C)C(=O)[C@H](O)C3=C(C)[C@@H](OC(=O)[C@H](O)[C@@H](NC(=O)OC(C)(C)C)c4ccccc4)C[C@@](O)([C@@H](OC(=O)c4ccccc4)[C@H]21)C3(C)C [Docetaxel] + CC(=O)Nc1cccc(-n2c(=O)n(C3CC3)c(=O)c3c(Nc4ccc(I)cc4F)n(C)c(=O)c(C)c32)c1 [Trametinib] (partner 0.02 µM)	true
CC(=O)O[C@@]12CO[C@@H]1C[C@H](O)[C@@]1(C)C(=O)[C@H](O)C3=C(C)[C@@H](OC(=O)[C@H](O)[C@@H](NC(=O)OC(C)(C)C)c4ccccc4)C[C@@](O)([C@@H](OC(=O)c4ccccc4)[C@H]21)C3(C)C [Docetaxel] + CC(C)C[C@H](NC(=O)[C@H](Cc1ccccc1)NC(=O)c1cnccn1)B(O)O [Bortezomib] (partner 0.002 µM)	false
CC(=O)O[C@@]12CO[C@@H]1C[C@H](O)[C@@]1(C)C(=O)[C@H](O)C3=C(C)[C@@H](OC(=O)[C@H](O)[C@@H](NC(=O)OC(C)(C)C)c4ccccc4)C[C@@](O)([C@@H](OC(=O)c4ccccc4)[C@H]21)C3(C)C [Docetaxel] + C[C@@H](Oc1cc(-c2cnn(C3CCNCC3)c2)cnc1N)c1c(Cl)ccc(F)c1Cl [Crizotinib] (partner 1 µM)	false

Does this molecule meet the criterion relative viability < 0.2? CC(=O)O[C@@]12CO[C@@H]1C[C@H](O)[C@@]1(C)C(=O)[C@H](O)C3=C(C)[C@@H](OC(=O)[C@H](O)[C@@H](NC(=O)OC(C)(C)C)c4ccccc4)C[C@@](O)([C@@H](OC(=O)c4ccccc4)[C@H]21)C3(C)C [Docetaxel] + N=C(N)NC(=N)NCCc1ccccc1 [Phenformin] (partner 250 µM)
true

Hello, I'm reviewing records and need to know if relative viability of CC(=O)O[C@@]12CO[C@@H]1C[C@H](O)[C@@]1(C)C(=O)[C@H](O)C3=C(C)[C@@H](OC(=O)[C@H](O)[C@@H](NC(=O)OC(C)(C)C)c4ccccc4)C[C@@](O)([C@@H](OC(=O)c4ccccc4)[C@H]21)C3(C)C [Docetaxel] + O=C(c1cc(Cc2n[nH]c(=O)c3ccccc23)ccc1F)N1CCN(C(=O)C2CC2)CC1 [Olaparib] (partner 8 µM) is below 0.2. Could you check?
true

Is relative viability strictly under 0.2 for the entry CC(=O)O[C@@]12CO[C@@H]1C[C@H](O)[C@@]1(C)C(=O)[C@H](O)C3=C(C)[C@@H](OC(=O)[C@H](O)[C@@H](NC(=O)OC(C)(C)C)c4ccccc4)C[C@@](O)([C@@H](OC(=O)c4ccccc4)[C@H]21)C3(C)C [Docetaxel] + Cc1nc(Nc2ncc(C(=O)Nc3c(C)cccc3Cl)s2)cc(N2CCN(CCO)CC2)n1 [Dasatinib] (partner 0.075 µM) ?
true
